Items are presented alongside their recorded viability, T/C.
Test system: 377384-186-R-J1-PDC complex spheroid viability;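 note: luminescence signal used as a stand-in for viable cells; spheroids exposed to agents for 7 days before reading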
Experiment: Anticancer human tumor 377384-186-R-J1-PDC patient-derived pancreatic carcinoma cell line growth inhibition [CLK]
Settings: second compound 10 µM; first compound 0.3 µM; hits give low values
From the text: A high-throughput screen of multi-cell type tumor spheroids was designed to identify active combinations of […] and targeted small molecules. Complex spheroids include a stromal component modeled by human endothelial cells (HUVEC) and fibroblasts modeled by human mesenchymal stem cells (MSCs). […] Compounds. […] If the clinical Cmax for an agent had not been determined, the highest concentration tested was 10 microM. […]
Provide only the numeric value, understood in %.

NC(=O)C(=Cn1cnc(-c2cc(C(F)(F)F)cc(C(F)(F)F)c2)n1)c1cncnc1 + CNC(=O)c1ccc(Nc2nc(OC3CCCC3)c3c(-c4ccc5nc(C)oc5c4)c[nH]c3n2)c(OC)c1	6.06
C=CC(=O)Nc1cc(Nc2nccc(-c3cn(C)c4ccccc34)n2)c(OC)cc1N(C)CCN(C)C + CN1CCN(c2cc(C(=O)Nc3cc4cc(-c5cnn(C)c5)ccc4cn3)ccn2)CC1	0.56
C=CC(=O)Nc1cc(Nc2nccc(-c3cn(C)c4ccccc34)n2)c(OC)cc1N(C)CCN(C)C + CNC(=O)c1ccc(Nc2nc(OC3CCCC3)c3c(-c4ccc5nc(C)oc5c4)c[nH]c3n2)c(OC)c1	15.3
CC(C)CC(NC(=O)C(Cc1ccccc1)NC(=O)c1cnccn1)B(O)O (stereo unspecified) + CNC(=O)c1ccc(Nc2nc(OC3CCCC3)c3c(-c4ccc5nc(C)oc5c4)c[nH]c3n2)c(OC)c1	0.3
NC(=O)C(=Cn1cnc(-c2cc(C(F)(F)F)cc(C(F)(F)F)c2)n1)c1cncnc1 + CN1CCN(c2cc(C(=O)Nc3cc4cc(-c5cnn(C)c5)ccc4cn3)ccn2)CC1	0.79

Shift focus to the following entry.
IN: Requested field: viability, T/C. Item: CC(C)CC(NC(=O)C(Cc1ccccc1)NC(=O)c1cnccn1)B(O)O (stereo unspecified) + CN1CCN(c2cc(C(=O)Nc3cc4cc(-c5cnn(C)c5)ccc4cn3)ccn2)CC1
OUT: 1.64
